The measurements presented in this section are drawn from patent EP3319959B1.

- SYSTEM NAME: HDAC2 (Homo sapiens)
- Construct: purchased Proteros
- Sequence (Q92769 whole entry): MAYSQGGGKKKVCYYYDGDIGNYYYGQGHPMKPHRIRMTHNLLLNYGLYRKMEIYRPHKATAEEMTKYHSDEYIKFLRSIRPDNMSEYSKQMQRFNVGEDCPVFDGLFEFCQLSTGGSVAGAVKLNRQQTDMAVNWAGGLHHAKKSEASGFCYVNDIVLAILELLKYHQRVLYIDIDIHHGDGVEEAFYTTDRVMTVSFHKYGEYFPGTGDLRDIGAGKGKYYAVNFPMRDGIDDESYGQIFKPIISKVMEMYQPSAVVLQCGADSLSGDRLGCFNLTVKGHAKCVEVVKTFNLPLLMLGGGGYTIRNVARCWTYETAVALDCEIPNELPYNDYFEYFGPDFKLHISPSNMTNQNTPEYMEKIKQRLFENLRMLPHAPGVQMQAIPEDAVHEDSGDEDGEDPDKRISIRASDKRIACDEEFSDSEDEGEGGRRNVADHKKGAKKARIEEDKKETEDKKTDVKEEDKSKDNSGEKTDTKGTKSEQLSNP
- PROTOCOL NOTES: Reporter displacement assay (HDAC2)
- Assay type: binding
Exam item: assign 1.0 to entries whose residence time is below 600 min and 0.0 to entries at or above 600 min. Note that a value of exactly 600 min receives 0.0.

Incoming: API: query returns whether the compound falls strictly under 600 min in residence time. Query: Nc1ccc(-c2ccc(F)cc2)nc1NC(=O)N1Cc2nccnc2C1 [Compound 120]
Outgoing: 0.0

Incoming: Next compound: Nc1ccc(-c2ccc(F)cc2)c(F)c1NC(=O)C1CCOCC1 [Compound 118]
Outgoing: 1.0

Incoming: Now consider Nc1cnc(-c2ccc(F)cc2)cc1NC(=O)N1CCCC1 [Compound 105] .
Outgoing: 0.0

Incoming: Now give it for Nc1ccc(-c2ccc(F)cc2)nc1NC(=O)C1CCOCC1 [Compound 109] too.
Outgoing: 1.0

Incoming: Now consider Nc1cc(F)c(-c2ccc(F)c(F)c2)cc1NC(=O)N1CCCC1 [Compound 116] .
Outgoing: 1.0

Incoming: Same thing, different compound: Nc1cn(-c2ccccc2)nc1NC(=O)N1Cc2ccncc2C1 [Compound 122]
Outgoing: 0.0

Incoming: Try this compound next: Nc1ccc(-c2ccc(F)cc2)nc1NC(=O)N1CCCC1 [Compound 107]
Outgoing: 0.0

Incoming: What would you report for Nc1ccc(-c2ccc(F)cc2)c(F)c1NC(=O)N1CCCC1 [Compound 112] ?
Outgoing: 0.0

---

- System: recombinant human HDACs
- PROTOCOL NOTES: HDAC enzymatic assay (LabChip capillary electrophoresis)
- Format: biochemical
- CONDITIONS: 5 nM HDAC enzyme, 1 uM substrate, 5 hours pre-incubation, 17 hours reaction at 25°C; isoform not given
Could you please report measured IC50 for the items listed next?

Incoming: // fetch recombinant human HDACs IC50 for Cn1cc(CN2CCCC3(CCN(C(=O)Nc4nc(-c5ccc(F)cc5)ccc4N)C3)C2)cn1 (centres unmarked)
Outgoing: > 5 µM

Incoming: Another molecule to look at: `CN1CCN(Cc2cccc3c2CN(C(=O)Nc2nc(-c4ccc(F)cc4)ccc2N)C3)CC1`
Outgoing: > 5 µM

Incoming: Please do the same for Nc1ccc(-c2ccco2)nc1NC(=O)N1CC2CN(Cc3ccccc3F)CC2C1 (centres unmarked) as well.
Outgoing: > 5 µM

Incoming: Can you check `Nc1ccc(-c2ccc(F)cc2)nc1NC(=O)N1Cc2cc(CN3CCC3)cnc2C1` next?
Outgoing: 0.1 to 0.5 µM

Incoming: Also, `CN1CCN(Cc2cnc3c(c2)CN(C(=O)Nc2nc(-c4ccc(F)cc4)ccc2N)C3)CC1` please.
Outgoing: 0.1 to 0.5 µM

Incoming: Another molecule to check: `Nc1ccc(-c2cccnc2)nc1NC(=O)N1Cc2cc(F)cnc2C1`
Outgoing: > 5 µM

Incoming: Proceed to `Nc1ccc(-c2ccc(OC(F)F)cc2)nc1NC(=O)N1CCCC1`
Outgoing: 0.5 to 5 µM

Incoming: Next up: `CN(C)Cc1ccc2c(c1)CN(C(=O)Nc1nc(-c3ccc(F)cc3)ccc1N)C2`
Outgoing: 0.1 to 0.5 µM

Incoming: Can you handle `Nc1ccc(-c2ccccc2)nc1NC(=O)C1CN(c2ccccn2)C1` next?
Outgoing: > 5 µM

Incoming: Also, `CN1CC(n2ncc3c2CN(C(=O)Nc2nc(-c4ccc(F)cc4)ccc2N)C3)C1` please.
Outgoing: > 5 µM

Incoming: Request: CN1CC(N2CC3CN(C(=O)Nc4nc(-c5ccc(F)cc5)ccc4N)CC3C2)C1 (centres unmarked)
Outgoing: 0.5 to 5 µM

Incoming: Next molecule up: CN1CC2CN(C(=O)Nc3nc(-c4ccc(F)cc4)ccc3N)CC2C1 (centres unmarked)
Outgoing: > 5 µM

Incoming: What would you report for Nc1ccc(-c2ccc(F)cc2)nc1NC(=O)N1CC2CN(CC3CCOCC3)CC2C1 (centres unmarked) ?
Outgoing: > 5 µM

Incoming: Same question, `Nc1cnc(-c2ccc(F)cc2)cc1NC(=O)N1Cc2cnc(N3CCC3)cc2C1` this time
Outgoing: 0.5 to 5 µM

Incoming: Item: Nc1ccc(-c2ccc(F)cc2)nc1NC(=O)N1CCC(C(F)(F)F)C1 (centres unmarked)
Outgoing: 0.5 to 5 µM

Incoming: Moving on to the next molecule: `Nc1ccc(-c2ccc(F)cc2)nc1NC(=O)N1Cc2cnc(CN3CC(F)(F)C3)cc2C1`
Outgoing: 0.5 to 5 µM

Incoming: Note, next up: `CN(C)Cc1ccc2c(c1)CN(C(=O)Nc1nc(-c3ccco3)ccc1N)C2`
Outgoing: 0.1 to 0.5 µM
